Where do the numbers come from? From patent US20230391876A1.

- tested on: T1, shFcRn (soluble human FcRn) (human, UniProt P55899 24-297; P61769 21-119)
- T1 construct: extracellular domain; Printed only as 'soluble human FcRn'; also called hFcRn (immobilized on a chip)
- T1 sequence (P55899 24-297 limits assumed, chain 1 of 2): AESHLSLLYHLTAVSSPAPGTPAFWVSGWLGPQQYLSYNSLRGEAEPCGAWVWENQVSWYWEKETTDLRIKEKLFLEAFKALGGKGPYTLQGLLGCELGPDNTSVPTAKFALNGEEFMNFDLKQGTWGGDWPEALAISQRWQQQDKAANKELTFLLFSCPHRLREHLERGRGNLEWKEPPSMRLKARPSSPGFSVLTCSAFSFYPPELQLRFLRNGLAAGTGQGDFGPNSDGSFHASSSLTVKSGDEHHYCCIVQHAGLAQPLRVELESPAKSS
- T1 sequence (P61769 21-119 limits assumed, chain 2 of 2): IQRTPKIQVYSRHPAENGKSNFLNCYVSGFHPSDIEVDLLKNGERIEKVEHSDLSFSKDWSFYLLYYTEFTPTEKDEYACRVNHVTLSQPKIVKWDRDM
- procedure summary: SPR, shFcRn immobilized on chip, antibody as analyte, pH 6.0;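 further: kinetics fitted with a 1:1 Langmuir model, association 200 s and dissociation 600 s, samples diluted in PBST, double-referenced signals, values averaged across three shFcRn-coated cells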
pKd: −log10 of the molar value.

| binder | pKd |
| --- | --- |
| HL161AN variant No. 21 (LC:N25Q, HC:C32Y Q82T) (antibody, human IgG1, V domains shown, Variable domains only) VL: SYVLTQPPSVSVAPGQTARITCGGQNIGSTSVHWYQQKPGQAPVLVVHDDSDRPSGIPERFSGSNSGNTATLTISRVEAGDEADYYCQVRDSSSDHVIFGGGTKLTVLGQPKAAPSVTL VH: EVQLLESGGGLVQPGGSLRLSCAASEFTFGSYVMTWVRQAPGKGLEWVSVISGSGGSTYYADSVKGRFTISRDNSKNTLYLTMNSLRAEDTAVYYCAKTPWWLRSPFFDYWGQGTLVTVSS | 9.69 |
| HL161AN variant No. 7 (LC:N25S, HC:C32S Q82T) (antibody, human IgG1, V domains shown, Variable domains only) VL: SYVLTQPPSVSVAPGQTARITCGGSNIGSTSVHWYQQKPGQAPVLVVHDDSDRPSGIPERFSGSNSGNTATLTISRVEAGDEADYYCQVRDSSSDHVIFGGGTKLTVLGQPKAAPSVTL VH: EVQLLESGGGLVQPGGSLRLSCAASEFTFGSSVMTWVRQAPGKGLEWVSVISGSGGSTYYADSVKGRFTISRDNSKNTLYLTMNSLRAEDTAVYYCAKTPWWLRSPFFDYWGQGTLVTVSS | 9.82 |
| HL161AN variant No. 9 (LC:N25S, HC:C32Y Q82S) (antibody, human IgG1, V domains shown, Variable domains only) VL: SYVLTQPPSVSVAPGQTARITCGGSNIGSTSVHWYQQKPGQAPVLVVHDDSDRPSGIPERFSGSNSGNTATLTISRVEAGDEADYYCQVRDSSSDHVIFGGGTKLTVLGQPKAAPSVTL VH: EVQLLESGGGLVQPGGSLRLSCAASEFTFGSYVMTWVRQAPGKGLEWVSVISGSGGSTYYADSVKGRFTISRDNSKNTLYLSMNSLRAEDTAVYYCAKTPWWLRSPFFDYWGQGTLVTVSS | 9.75 |
| HL161AN variant No. 16 (LC:N25Q, HC:Q82E) (antibody, human IgG1, V domains shown, Variable domains only) VL: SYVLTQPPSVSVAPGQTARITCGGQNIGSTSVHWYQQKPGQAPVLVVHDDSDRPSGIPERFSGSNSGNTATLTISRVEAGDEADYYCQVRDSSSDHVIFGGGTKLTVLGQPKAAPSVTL VH: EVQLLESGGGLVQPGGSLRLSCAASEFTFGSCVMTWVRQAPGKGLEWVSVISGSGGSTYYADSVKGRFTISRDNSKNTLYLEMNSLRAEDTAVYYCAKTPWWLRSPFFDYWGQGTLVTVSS | 9.57 |
| HL161AN variant No. 18 (LC:N25Q, HC:C32S Q82T) (antibody, human IgG1, V domains shown, Variable domains only) VL: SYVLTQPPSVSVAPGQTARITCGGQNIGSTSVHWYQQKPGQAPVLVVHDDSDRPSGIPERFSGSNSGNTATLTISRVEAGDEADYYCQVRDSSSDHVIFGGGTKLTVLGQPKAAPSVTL VH: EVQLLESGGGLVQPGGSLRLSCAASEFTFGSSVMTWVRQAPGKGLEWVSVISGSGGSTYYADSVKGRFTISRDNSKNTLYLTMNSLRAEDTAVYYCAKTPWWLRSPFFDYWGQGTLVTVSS | 9.70 |
| HL161AN variant No. 4 (LC:N25S, HC:Q82T) (antibody, human IgG1, V domains shown, Variable domains only) VL: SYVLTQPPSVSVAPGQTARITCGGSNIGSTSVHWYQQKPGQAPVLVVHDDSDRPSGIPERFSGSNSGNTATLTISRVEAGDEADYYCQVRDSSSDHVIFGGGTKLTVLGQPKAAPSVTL VH: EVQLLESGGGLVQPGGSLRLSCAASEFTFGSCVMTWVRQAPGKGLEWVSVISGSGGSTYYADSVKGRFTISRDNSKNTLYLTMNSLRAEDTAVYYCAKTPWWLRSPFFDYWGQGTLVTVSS | 9.81 |
| HL161AN variant No. 3 (LC:N25S, HC:Q82S) (antibody, human IgG1, V domains shown, Variable domains only) VL: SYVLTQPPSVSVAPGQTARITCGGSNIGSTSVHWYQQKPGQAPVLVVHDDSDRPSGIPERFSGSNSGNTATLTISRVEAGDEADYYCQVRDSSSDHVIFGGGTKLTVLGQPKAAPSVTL VH: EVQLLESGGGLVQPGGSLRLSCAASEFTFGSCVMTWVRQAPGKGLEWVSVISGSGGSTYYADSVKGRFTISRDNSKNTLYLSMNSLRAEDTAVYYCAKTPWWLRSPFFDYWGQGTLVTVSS | 9.84 |
| HL161AN variant No. 10 (LC:N25S, HC:C32Y Q82T) (antibody, human IgG1, V domains shown, Variable domains only) VL: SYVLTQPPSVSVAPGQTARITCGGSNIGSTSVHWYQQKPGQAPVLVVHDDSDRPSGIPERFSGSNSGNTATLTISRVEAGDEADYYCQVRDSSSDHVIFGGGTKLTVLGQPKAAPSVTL VH: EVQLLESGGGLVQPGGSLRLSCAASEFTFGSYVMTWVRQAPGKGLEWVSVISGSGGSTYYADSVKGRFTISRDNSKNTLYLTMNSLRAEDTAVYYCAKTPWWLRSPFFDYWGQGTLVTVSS | 9.69 |
| HL161AN variant No. 6 (LC:N25S, HC:C32S Q82S) (antibody, human IgG1, V domains shown, Variable domains only) VL: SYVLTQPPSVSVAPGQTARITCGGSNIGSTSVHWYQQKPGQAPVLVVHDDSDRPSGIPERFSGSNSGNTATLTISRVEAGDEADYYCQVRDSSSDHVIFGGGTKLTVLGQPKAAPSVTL VH: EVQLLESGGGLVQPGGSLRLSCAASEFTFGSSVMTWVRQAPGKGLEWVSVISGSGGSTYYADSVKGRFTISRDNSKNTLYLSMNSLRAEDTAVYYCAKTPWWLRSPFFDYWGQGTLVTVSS | 9.79 |
| HL161AN variant No. 17 (LC:N25Q, HC:C32S Q82S) (antibody, human IgG1, V domains shown, Variable domains only) VL: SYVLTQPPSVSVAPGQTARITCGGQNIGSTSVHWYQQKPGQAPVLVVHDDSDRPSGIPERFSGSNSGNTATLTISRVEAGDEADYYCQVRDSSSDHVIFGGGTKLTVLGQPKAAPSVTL VH: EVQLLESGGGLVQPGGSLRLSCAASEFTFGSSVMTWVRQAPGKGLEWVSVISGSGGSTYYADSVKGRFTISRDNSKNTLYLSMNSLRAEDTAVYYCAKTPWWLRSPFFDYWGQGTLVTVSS | 9.77 |
| HL161AN variant No. 1 (LC:N25S, HC:C32S) (antibody, V domains shown, also called HL161ANS; #1 (HL161ANS)) VL: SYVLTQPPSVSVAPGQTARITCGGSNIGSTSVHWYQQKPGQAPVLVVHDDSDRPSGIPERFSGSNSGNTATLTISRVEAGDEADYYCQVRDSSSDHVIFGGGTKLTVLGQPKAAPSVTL VH: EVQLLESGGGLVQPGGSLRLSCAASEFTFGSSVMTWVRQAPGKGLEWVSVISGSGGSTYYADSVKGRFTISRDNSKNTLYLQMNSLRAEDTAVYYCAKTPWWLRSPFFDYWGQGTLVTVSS | 9.89 |
